Tested on: MCF7
Test: MTT inhibition of proliferation
Type: cell-based
Settings: Homo sapiens, 72 h
pIC50: −log10 of the molar value. Counter-ions that a name gives are not always drawn.
Measured Metric: pIC50

1) O=c1[nH]cc(F)c(=O)[nH]1; 5.89
2) CC(=O)O[C@H]1C(=O)[C@@]2(C)[C@H]([C@H](OC(=O)c3ccccc3)[C@]3(O)C[C@H](OC(=O)[C@H](O)[C@@H](NC(=O)c4ccccc4)c4ccccc4)C(C)=C1C3(C)C)[C@]1(OC(C)=O)CO[C@@H]1C[C@@H]2O; 8.35
3) Nc1ccn([C@@H]2O[C@H](CO)[C@@H](O)C2(F)F)c(=O)n1 [GEM, gemcitabine hydrochloride]; 6.37
